assay: logP determination via retention times, calibrated with unbranched alkan-2-ones; assay type: physicochemical; settings: HPLC reversed-phase C 18, EEC Directive 79/831 Annex V.A8; method *: 40° C., 0.1% aqueous formic acid and acetonitrile, linear gradient 10% to 95% acetonitrile
Marks after values point to notes of the source that are not given here.
parameter: logP

>  <compound>
Cc1ccc(Nc2ncc(Br)c(NC3CC3)n2)cc1CC#N

>  <logP>
1.85*

$$$$
>  <compound>
O=[N+]([O-])c1cccc(Nc2ncc(Cl)c(NC3CC3)n2)c1

>  <logP>
2.63*

$$$$
>  <compound>
O=C(O)CCc1cccc(Nc2ncc(Cl)c(NC3CC3)n2)c1

>  <logP>
1.09*

$$$$
>  <compound>
COCc1cccc(Nc2ncc(I)c(NC3CC3)n2)c1

>  <logP>
1.86*

$$$$
>  <compound>
CSC(C)c1cccc(Nc2ncc(C(F)(F)F)c(NCC3CC3)n2)c1 (stereo not drawn)

>  <logP>
3.95*

$$$$
>  <compound>
CC(C)c1cccc(Nc2ncc(Cl)c(NCC3CC3)n2)c1

>  <logP>
2.71*

$$$$
>  <compound>
Cc1ccc(Nc2ncc(Cl)c(NC3CC3)n2)cc1CC#N

>  <logP>
1.79*

$$$$
>  <compound>
O=C(c1cccc(Nc2ncc(Cl)c(NC3CC3)n2)c1)N1CCCC1

>  <logP>
1.57*

$$$$

Query: Endpoint output: logP of O=C1OCCN1c1cccc(Nc2ncc(C(F)(F)F)c(NC3CC3)n2)c1 . Value?
Result: 2.18*;
